Tested on: Saccharomyces cerevisiae α-glucosidase
Assay: In vitro α-glucosidase inhibition assay (BioVision kit, pNPG)
Assay type: biochemical
Conditions: conc 250 (µg/mL), Table 2S
Method: Using BioVision’s α-Glucosidase Inhibitor Screening Kit (Colorimetric) (Catalogue #K938-100) at (OD: 410 nm), the in vitro α-glucosidase suppression effect for the designed 1,2,4-triazole derivatives 3, 4, 6, 8, 9, and 10 was carried out. The results were analyzed on a multi-well spectrophotometer (ELISA reader) using a 96-well microplate in compliance with the manufacturer’s instructions as previously described[49],[50]. […]
# key: entry, value: %inh α-glucosidase
Field: numeric (%). Do not append units.

Use these answered entries as a reference point.
{"Compound": "COc1ccc(Cc2nnc(SCC(=O)Nc3ccc(C(=O)O)cc3)n2-c2ccccc2)cc1", "Units": "%", "%inh α-glucosidase": 7.55}
{"Compound": "CCOC(=O)c1ccc(NC(=O)CSc2nnc(Cc3ccc(OC)cc3)n2-c2ccccc2)cc1", "Units": "%", "%inh α-glucosidase": 18.4}

Now look at this entry.
Query: Answer with %inh α-glucosidase of C[C@H]1O[C@H](O[C@H]2[C@H](O)[C@@H](O)[C@@H](O[C@H]3[C@H](O)[C@@H](O)C(O)O[C@@H]3CO)O[C@@H]2CO)[C@H](O)[C@@H](O)[C@@H]1N[C@H]1C=C(CO)[C@@H](O)[C@H](O)[C@H]1O (stereo partly drawn) [Acarbose, reference compound] measured for Saccharomyces cerevisiae α-glucosidase.
Response: 40.6

###

tested on: Saccharomyces cerevisiae α-glucosidase; experiment: In vitro α-glucosidase inhibition assay (BioVision kit, pNPG); type: biochemical; conditions: conc 63 (µg/mL), Table 2S
Observed Property: %inh α-glucosidase (%)
Field: numeric (%). Do not append units.

{"Compound": "COc1ccc(Cc2nnc(SCC(=O)Nc3ccccc3)n2-c2ccccc2)cc1", "Units": "%", "%inh α-glucosidase": 15.7}
{"Compound": "COc1ccc(Cc2nnc(SCC(=O)Nc3ccc(Br)cc3)n2-c2ccccc2)cc1", "Units": "%", "%inh α-glucosidase": 16.3}
{"Compound": "C[C@H]1O[C@H](O[C@H]2[C@H](O)[C@@H](O)[C@@H](O[C@H]3[C@H](O)[C@@H](O)C(O)O[C@@H]3CO)O[C@@H]2CO)[C@H](O)[C@@H](O)[C@@H]1N[C@H]1C=C(CO)[C@@H](O)[C@H](O)[C@H]1O (stereo partly shown) [Acarbose, reference compound]", "Units": "%", "%inh α-glucosidase": 8.91}
{"Compound": "CCOC(=O)c1ccc(NC(=O)CSc2nnc(Cc3ccc(OC)cc3)n2-c2ccccc2)cc1", "Units": "%", "%inh α-glucosidase": 1.46}
{"Compound": "COc1ccc(Cc2nnc(SCC(=O)Nc3ccc(O)cc3)n2-c2ccccc2)cc1", "Units": "%", "%inh α-glucosidase": 4.22}
{"Compound": "COc1ccc(Cc2nnc(SCC(=O)Nc3ccc(C(=O)O)cc3)n2-c2ccccc2)cc1", "Units": "%", "%inh α-glucosidase": 1.67}

Now look at this entry.
Query: Give the value of %inh α-glucosidase reported for the following: COc1ccc(Cc2nnc(SCC(=O)Nc3ccc(C(C)=O)cc3)n2-c2ccccc2)cc1
Response: 19.9

###

system: Saccharomyces cerevisiae α-glucosidase; experiment: In vitro α-glucosidase inhibition assay (BioVision kit, pNPG); assay type: biochemical; settings: conc 500 (µg/mL), Table 2S
Observed Property: %inh α-glucosidase (%)
Field: numeric (%). Do not append units.

Use these answered entries as a reference point.
{"Compound": "CCOC(=O)c1ccc(NC(=O)CSc2nnc(Cc3ccc(OC)cc3)n2-c2ccccc2)cc1 [Compound 8]", "Observed Property": "%inh α-glucosidase", "Measurement": 38.9}
{"Compound": "C[C@H]1O[C@H](O[C@H]2[C@H](O)[C@@H](O)[C@@H](O[C@H]3[C@H](O)[C@@H](O)C(O)O[C@@H]3CO)O[C@@H]2CO)[C@H](O)[C@@H](O)[C@@H]1N[C@H]1C=C(CO)[C@@H](O)[C@H](O)[C@H]1O (stereo partly shown) [Acarbose, reference compound]", "Observed Property": "%inh α-glucosidase", "Measurement": 58.6}
{"Compound": "COc1ccc(Cc2nnc(SCC(=O)Nc3ccc(Br)cc3)n2-c2ccccc2)cc1 [Compound 10]", "Observed Property": "%inh α-glucosidase", "Measurement": 58}
{"Compound": "COc1ccc(Cc2nnc(SCC(=O)Nc3ccc(O)cc3)n2-c2ccccc2)cc1 [Compound 9]", "Observed Property": "%inh α-glucosidase", "Measurement": 31.9}

Query: Give the value of %inh α-glucosidase reported for the following: COc1ccc(Cc2nnc(SCC(=O)Nc3ccc(C(=O)O)cc3)n2-c2ccccc2)cc1 [Compound 6]
Response: 28.9

Query: Give the value of %inh α-glucosidase reported for the following: COc1ccc(Cc2nnc(SCC(=O)Nc3ccc(C(C)=O)cc3)n2-c2ccccc2)cc1 [Compound 4]
Response: 63.6

Query: Give the value of %inh α-glucosidase reported for the following: COc1ccc(Cc2nnc(SCC(=O)Nc3ccccc3)n2-c2ccccc2)cc1 [Compound 3]
Response: 58.5

###

System: Saccharomyces cerevisiae α-glucosidase
Assay: In vitro α-glucosidase inhibition assay (BioVision kit, pNPG)
Assay type: biochemical
Details: conc 250 (µg/mL), Table 2S
Description: Using BioVision’s α-Glucosidase Inhibitor Screening Kit (Colorimetric) (Catalogue #K938-100) at (OD: 410 nm), the in vitro α-glucosidase suppression effect for the designed 1,2,4-triazole derivatives 3, 4, 6, 8, 9, and 10 was carried out. The results were analyzed on a multi-well spectrophotometer (ELISA reader) using a 96-well microplate in compliance with the manufacturer’s instructions as previously described[49],[50]. […]
# key: entry, value: %inh α-glucosidase
Field: numeric (%). Do not append units.

{"Compound": "COc1ccc(Cc2nnc(SCC(=O)Nc3ccc(Br)cc3)n2-c2ccccc2)cc1 [Compound 10]", "Observed Property": "%inh α-glucosidase", "Measurement": 39.9}
{"Compound": "COc1ccc(Cc2nnc(SCC(=O)Nc3ccccc3)n2-c2ccccc2)cc1 [Compound 3]", "Observed Property": "%inh α-glucosidase", "Measurement": 40.9}
{"Compound": "COc1ccc(Cc2nnc(SCC(=O)Nc3ccc(O)cc3)n2-c2ccccc2)cc1 [Compound 9]", "Observed Property": "%inh α-glucosidase", "Measurement": 14}

Query: Answer with %inh α-glucosidase of COc1ccc(Cc2nnc(SCC(=O)Nc3ccc(C(C)=O)cc3)n2-c2ccccc2)cc1 [Compound 4] measured for Saccharomyces cerevisiae α-glucosidase.
Response: 50.9

###

Target: porcine pancreatic α-amylase (Sus scrofa)
Construct: purchased BioVision K482-100
Sequence (P00690 16-511): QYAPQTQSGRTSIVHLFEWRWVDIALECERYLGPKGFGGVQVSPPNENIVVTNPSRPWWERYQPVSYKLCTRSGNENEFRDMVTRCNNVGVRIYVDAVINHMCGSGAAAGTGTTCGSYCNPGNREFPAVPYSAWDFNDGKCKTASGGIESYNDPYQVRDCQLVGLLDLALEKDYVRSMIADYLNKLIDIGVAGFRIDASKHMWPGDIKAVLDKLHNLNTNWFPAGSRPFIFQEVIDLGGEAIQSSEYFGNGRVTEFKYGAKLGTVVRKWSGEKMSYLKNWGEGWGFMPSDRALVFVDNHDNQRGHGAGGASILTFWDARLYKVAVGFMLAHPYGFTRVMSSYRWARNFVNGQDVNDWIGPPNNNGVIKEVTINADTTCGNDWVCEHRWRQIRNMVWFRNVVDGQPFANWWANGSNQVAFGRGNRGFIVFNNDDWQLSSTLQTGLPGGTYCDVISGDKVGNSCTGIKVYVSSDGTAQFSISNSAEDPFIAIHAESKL
Assay: In vitro α-amylase inhibition assay (BioVision kit / modified DNSA method)
Format: biochemical
Conditions: table printed in Fig. 9; read-out: α- Amylase IC50 (converted)
hey, just use t if measured IC50 is less than 0.9 µM, otherwise f

{"Smiles": "COc1ccc(Cc2nnc(SCC(=O)Nc3ccc(C(C)=O)cc3)n2-c2ccccc2)cc1", "Class Label": "t"}
{"Smiles": "COc1ccc(Cc2nnc(SCC(=O)Nc3ccc(Br)cc3)n2-c2ccccc2)cc1", "Class Label": "t"}
{"Smiles": "COc1ccc(Cc2nnc(SCC(=O)Nc3ccc(O)cc3)n2-c2ccccc2)cc1", "Class Label": "f"}
{"Smiles": "COc1ccc(Cc2nnc(SCC(=O)Nc3ccc(C(=O)O)cc3)n2-c2ccccc2)cc1", "Class Label": "f"}

Query: A record lists CCOC(=O)c1ccc(NC(=O)CSc2nnc(Cc3ccc(OC)cc3)n2-c2ccccc2)cc1 . Is its IC50 below 0.9 µM?
Response: f

###

biological target: Saccharomyces cerevisiae α-glucosidase; experiment: In vitro α-glucosidase inhibition assay (BioVision kit, pNPG); assay type: biochemical
Observed Property: α-glucosidase inhibition IC50 (µg/mL)
Field: numeric (µg/mL). Do not append units.

Use these answered entries as a reference point.
{"Compound": "COc1ccc(Cc2nnc(SCC(=O)Nc3ccc(Br)cc3)n2-c2ccccc2)cc1 [Compound 10]", "Measurement": 0.31}
{"Compound": "COc1ccc(Cc2nnc(SCC(=O)Nc3ccc(O)cc3)n2-c2ccccc2)cc1 [Compound 9]", "Measurement": 0.77}

Query: Give the value of α-glucosidase inhibition IC50 reported for the following: COc1ccc(Cc2nnc(SCC(=O)Nc3ccccc3)n2-c2ccccc2)cc1 [Compound 3]
Response: 0.36

Query: Give the value of α-glucosidase inhibition IC50 reported for the following: COc1ccc(Cc2nnc(SCC(=O)Nc3ccc(C(=O)O)cc3)n2-c2ccccc2)cc1 [Compound 6]
Response: 0.83

Query: Give the value of α-glucosidase inhibition IC50 reported for the following: COc1ccc(Cc2nnc(SCC(=O)Nc3ccc(C(C)=O)cc3)n2-c2ccccc2)cc1 [Compound 4]
Response: 0.27

Query: Give the value of α-glucosidase inhibition IC50 reported for the following: CCOC(=O)c1ccc(NC(=O)CSc2nnc(Cc3ccc(OC)cc3)n2-c2ccccc2)cc1 [Compound 8]
Response: 0.67
